# TARGET: Thromboxane A2 receptor (Homo sapiens)
# Sequence (P21731 whole entry): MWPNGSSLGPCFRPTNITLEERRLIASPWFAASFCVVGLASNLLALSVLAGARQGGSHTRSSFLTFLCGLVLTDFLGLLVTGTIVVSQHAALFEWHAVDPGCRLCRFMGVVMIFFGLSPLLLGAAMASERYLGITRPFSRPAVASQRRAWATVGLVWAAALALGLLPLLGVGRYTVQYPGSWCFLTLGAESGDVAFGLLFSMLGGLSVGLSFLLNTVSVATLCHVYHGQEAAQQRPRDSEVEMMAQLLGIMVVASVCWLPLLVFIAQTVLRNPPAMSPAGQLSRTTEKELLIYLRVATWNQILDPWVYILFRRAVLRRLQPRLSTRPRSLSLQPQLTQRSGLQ
PARAMETER_MEASURED: IC50 (µM)

>>> numeric_readout("COc1cc(CC2NCCc3c(F)c(O)c(O)c(F)c32)cc(OC)c1OC (stereo unspecified) [TMQ, 5,8-Difluoro]")
158

====

Attribute: IC50
# METHOD_DESCRIPTION: Inhibitory activity against U-46,619-induced responses in human platelet aggregation (Thromboxane A2 alpha receptor)
PARAMETER_MEASURED: IC50 (µM)

>>> numeric_readout("COc1cc(C[C@@H]2NCCc3cc(O)c(O)c(F)c32)cc(OC)c1OC [TMQ, S-(+)-8-Fluoro]")
39.8
>>> numeric_readout("COc1cc(C[C@H]2NCCc3cc(O)c(O)c(F)c32)cc(OC)c1OC [TMQ, R-(-)-8-Fluoro]")
2.46
